- test_target: T1, biotin-labeled CD47 extracellular domain protein (CD47-ECD) (UniProt Q08722 19-139, limits assumed, biotin-labeled (sites not given))
- T1 construct: extracellular domain; also called CD47 protein
- T1 sequence (Q08722 19-139 limits assumed): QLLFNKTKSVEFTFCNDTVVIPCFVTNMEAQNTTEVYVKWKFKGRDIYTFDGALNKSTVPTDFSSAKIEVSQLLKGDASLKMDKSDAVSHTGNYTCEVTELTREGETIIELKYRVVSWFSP
- experiment: blocking ELISA, biotin-CD47-ECD on coated SIRPα-hFc; Ab 8 nM
Measured OD450 nm of CD47 bound to SIRPα, listed per entry for reference.
reported_metric: OD450 nm of CD47 bound to SIRPα

- 51E2F11 (antibody, V domains shown, Murine hybridoma antibody purified on protein G) VH: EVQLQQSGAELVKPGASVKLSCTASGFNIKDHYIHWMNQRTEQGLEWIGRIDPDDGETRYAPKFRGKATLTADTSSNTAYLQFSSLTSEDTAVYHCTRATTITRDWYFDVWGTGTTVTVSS VL: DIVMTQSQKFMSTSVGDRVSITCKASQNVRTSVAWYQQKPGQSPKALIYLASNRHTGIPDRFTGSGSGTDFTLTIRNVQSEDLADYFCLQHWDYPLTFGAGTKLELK: 0.1
- 132D1E5 (antibody, V domains shown, Murine hybridoma antibody purified on protein G) VH: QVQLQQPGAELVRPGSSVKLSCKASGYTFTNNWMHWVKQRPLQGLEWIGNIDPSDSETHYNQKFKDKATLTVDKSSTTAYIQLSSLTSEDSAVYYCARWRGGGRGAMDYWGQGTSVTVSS VL: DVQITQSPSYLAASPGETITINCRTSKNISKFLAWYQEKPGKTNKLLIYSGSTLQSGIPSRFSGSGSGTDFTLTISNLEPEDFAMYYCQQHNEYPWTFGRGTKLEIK: 0.07
- 20H4G5 (antibody, V domains shown, Murine hybridoma antibody purified on protein G) VH: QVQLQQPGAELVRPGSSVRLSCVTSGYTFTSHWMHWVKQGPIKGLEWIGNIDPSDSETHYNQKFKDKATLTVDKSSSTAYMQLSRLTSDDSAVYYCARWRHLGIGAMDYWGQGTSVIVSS VL: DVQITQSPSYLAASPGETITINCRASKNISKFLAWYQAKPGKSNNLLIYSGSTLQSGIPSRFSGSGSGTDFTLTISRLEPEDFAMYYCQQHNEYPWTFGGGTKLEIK: 0.08
- 25E3B5 (antibody, V domains shown, Murine hybridoma antibody purified on protein G) VH: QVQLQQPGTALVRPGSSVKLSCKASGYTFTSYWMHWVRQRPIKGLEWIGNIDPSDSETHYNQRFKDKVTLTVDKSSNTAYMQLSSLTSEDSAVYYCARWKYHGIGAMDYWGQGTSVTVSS VL: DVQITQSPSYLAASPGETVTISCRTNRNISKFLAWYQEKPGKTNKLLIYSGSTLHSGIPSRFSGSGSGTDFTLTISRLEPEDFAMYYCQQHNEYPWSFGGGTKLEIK: 0.07
